Reported pIC50 values follow for various compounds
- target.under.test: pseudo-kinase domain (JH2, amino-acids 536-812) of human V617F mutant JAK2 (Homo sapiens, UniProt O60674, F794H/V617F/W659A/W777A)
- Construct: JH2, amino-acids 536-812 with 3 surface mutations W659A, W777A, F794H; His (C); purchased BPS Bioscience 79498; host or cells: baculovirus expression system
- Sequence (O60674 536-812 V617F/W659A/W777A/F794H): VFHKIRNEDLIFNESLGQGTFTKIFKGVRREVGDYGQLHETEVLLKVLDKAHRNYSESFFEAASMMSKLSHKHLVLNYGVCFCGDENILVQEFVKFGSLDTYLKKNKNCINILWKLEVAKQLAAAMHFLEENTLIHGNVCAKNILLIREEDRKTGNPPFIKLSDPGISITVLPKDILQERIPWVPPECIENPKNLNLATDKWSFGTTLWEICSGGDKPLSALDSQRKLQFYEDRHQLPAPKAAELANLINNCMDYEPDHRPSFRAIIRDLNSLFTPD
- protocol.summary: JAK2 LanthaScreen JH2-V617F Binding Assay
- settings: 50 nM Fluorescent JAK2-JH2 Tracer, 1 hour at 25° C.; read-out: JH2 BIND V617F (Ex. C)
pIC50: −log10 of the molar value.

// known answers, use as guide
[
  {
    "compound": "[2H]C([2H])([2H])n1c(=O)n([C@@H]2CC[C@@]([2H])(NC(=O)OC)C2)c2cc(Nc3cc(C)c4nc(C)c(I)n4n3)ncc21 [Example 46]",
    "pIC50": "≥ 8.00"
  },
  {
    "compound": "COC(=O)N[C@@H]1CC[C@@H](n2c(=O)n(C)c3cnc(Nc4ccc5cccc(C)c5n4)cc32)C1 [Example 39]",
    "pIC50": "7.00 to 8.00"
  }
]

Then there is this compound:
The compound listed as [2H]C([2H])([2H])n1c(=O)n([C@@H]2CC[C@@H](NC(=O)OC)C2)c2cc(Nc3cc(S(C)(=N)=O)c4cccc(C(F)(F)F)c4n3)ncc21 (stereo partly drawn) [Example 7] shows pIC50 equal to 7.00 to 8.00

###

Reported IC50 values follow for various compounds
- target.under.test: pseudo-kinase domain (JH2, amino-acids 536-812) of human Wild Type JAK2 (Homo sapiens, UniProt O60674, F794H/W659A/W777A)
- Construct: JH2, amino-acids 536-812 with 3 surface mutations W659A, W777A, F794H; His (C)
- Sequence (O60674 536-812 W659A/W777A/F794H): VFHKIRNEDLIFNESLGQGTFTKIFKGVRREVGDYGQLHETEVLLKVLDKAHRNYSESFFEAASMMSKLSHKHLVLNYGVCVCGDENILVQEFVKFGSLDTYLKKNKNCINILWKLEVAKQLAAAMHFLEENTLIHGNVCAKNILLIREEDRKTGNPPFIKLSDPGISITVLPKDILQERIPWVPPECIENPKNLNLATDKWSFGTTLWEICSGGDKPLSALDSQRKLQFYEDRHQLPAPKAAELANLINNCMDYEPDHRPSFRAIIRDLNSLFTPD
- protocol.summary: JAK2 LanthaScreen JH2-WT Binding Assay
- settings: 50 nM Fluorescent JAK2-JH2 Tracer, 1 hour at 25° C.; read-out: JH2 BIND WT (EX. B)

[
  {
    "compound": "[2H]C([2H])([2H])n1c(=O)n([C@@H]2CC[C@@H](NC(=O)OC)C2)c2cc(Nc3cnc4cccc(C#N)c4n3)ncc21 [Example 37]",
    "IC50": "≤ 10 nM"
  },
  {
    "compound": "[2H]C([2H])([2H])n1c(=O)n([C@@H]2CC[C@@H](NC(=O)OC)C2)c2cc(Nc3ccc4ncc(C(C)C(F)(F)F)n4n3)ncc21 (stereo partly drawn) [Example 30]",
    "IC50": "≤ 10 nM"
  },
  {
    "compound": "[2H]C([2H])([2H])n1c(=O)n([C@@H]2CC[C@@H](NC(=O)OC)C2)c2cc(Nc3cc(C(C)(C)C#N)c4cccc(C(F)(F)F)c4n3)ncc21 [Example 19]",
    "IC50": "≤ 10 nM"
  },
  {
    "compound": "[2H]C([2H])([2H])n1c(=O)n([C@@H]2CC[C@@H](NC(=O)OC)C2)c2cc(Nc3cc(NC(=O)COC)c4cccc(C(F)(F)F)c4n3)ncc21 [Example 22]",
    "IC50": "≤ 10 nM"
  }
]

The compound listed as [2H]C([2H])([2H])n1c(=O)n([C@@H]2CC[C@@H](NC(=O)OC)C2)c2cc(Nc3cc(S(C)(=N)=O)c4cccc(C(F)(F)F)c4n3)ncc21 (stereo partly drawn) [Example 7] shows IC50 equal to ≤ 10 nM

The compound listed as [2H]C([2H])([2H])n1c(=O)n([C@@H]2CC[C@@H](NC(=O)OC)C2)c2cc(Nc3cc(C(C)(C)O)c4cc(Cl)cc(C(F)(F)F)c4n3)ncc21 [Example 20] shows IC50 equal to ≤ 10 nM

The compound listed as COC(=O)N[C@@H]1CC[C@@H](n2c(=O)n(C)c3cnc(Nc4ccc5cccc(C#N)c5n4)cc32)C1 [Example 43] shows IC50 equal to ≤ 10 nM

The compound listed as COC(=O)N[C@@H]1CC[C@@H](n2c(=O)n(C)c3cnc(Nc4ccc5ccc(C#N)cc5n4)cc32)C1 [Example 44] shows IC50 equal to 100 to 500 nM

The compound listed as [2H]C([2H])([2H])n1c(=O)n([C@@H]2CC[C@@H](NC(=O)OC)C2)c2cc(Nc3cc(S(C)(=O)=O)c4cccc(C(F)(F)F)c4n3)ncc21 [Example 6] shows IC50 equal to ≤ 10 nM

###

- target.under.test: pseudo-kinase domain (JH2, amino-acids 536-812) of human V617F mutant JAK2 (Homo sapiens, UniProt O60674, F794H/V617F/W659A/W777A)
- Construct: JH2, amino-acids 536-812 with 3 surface mutations W659A, W777A, F794H; His (C); purchased BPS Bioscience 79498; host or cells: baculovirus expression system
- protocol.summary: JAK2 LanthaScreen JH2-V617F Binding Assay
- settings: 50 nM Fluorescent JAK2-JH2 Tracer, 1 hour at 25° C.; read-out: JH2 BIND V617F (Ex. C)
- Method: Example C. JAK2 LanthaScreen JH2-V617F Binding Assay JAK2 JH2-V617F binding assay utilizes pseudo-kinase domain (JH2, amino-acids 536-812 with 3 surface mutations W659A, W777A, F794H) of human V617F mutant JAK2 expressed as C-terminal His-Avi-tagged, biotinylated protein in a baculovirus expression system (BPS Bioscience, Catalog #79498). […] After incubation for 1 hour at 25° C., LanthaScreen signals were read on a PHERAstar FS plate reader (BMG LABTECH). […]
Reported IC50 values follow for various compounds

[
  {
    "compound": "[2H]C([2H])([2H])n1c(=O)n([C@H]2C[C@H](NC(=O)OC)C2)c2cc(Nc3cc(C(C)(C)O)c4cccc(C(F)(F)F)c4n3)ncc21 [Example 15]",
    "IC50": "≤ 10 nM"
  },
  {
    "compound": "[2H]C([2H])([2H])n1c(=O)n([C@@H]2CC[C@@H](NC(=O)OC)C2)c2cc(Nc3cc(S(C)(=O)=O)c4cccc(C(F)(F)F)c4n3)ncc21 [Example 6]",
    "IC50": "≤ 10 nM"
  },
  {
    "compound": "[2H]C([2H])([2H])n1c(=O)n(C23CCC(NC(=O)OC)(C2)C3)c2cc(Nc3cc(C(C)(C)O)c4cccc(C(F)(F)F)c4n3)ncc21 [Example 32]",
    "IC50": "≤ 10 nM"
  },
  {
    "compound": "COC(=O)N[C@@H]1CC[C@@H](n2c(=O)n(C)c3cnc(Nc4ccc5cc(Cl)cc(C(F)(F)F)c5n4)cc32)C1 [Example 25]",
    "IC50": "≤ 10 nM"
  },
  {
    "compound": "[2H]C([2H])([2H])n1c(=O)n([C@@H]2CC[C@@H](NC(=O)OC)C2)c2cc(Nc3cnc4cccc(C#N)c4n3)ncc21 [Example 37]",
    "IC50": "10 to 100 nM"
  }
]

Then there is this compound:
The compound listed as [2H]C([2H])([2H])n1c(=O)n([C@@H]2CC[C@@H](NC(=O)OC)C2)c2cc(Nc3cc(C)c4cccc(C(F)(F)F)c4n3)ncc21 [Example 4] shows IC50 equal to ≤ 10 nM

###

- target.under.test: pseudo-kinase domain (JH2, amino-acids 536-812) of human V617F mutant JAK2 (Homo sapiens, UniProt O60674, F794H/V617F/W659A/W777A)
- Construct: JH2, amino-acids 536-812 with 3 surface mutations W659A, W777A, F794H; His (C)
- protocol.summary: JAK2 LanthaScreen JH2-V617F Binding Assay
- settings: 50 nM Fluorescent JAK2-JH2 Tracer, 1 hour at 25° C.; read-out: JH2 BIND V617F (Ex. C)
Reported IC50 values follow for various molecules

// known answers, use as guide
[
  {
    "molecule": "COC(=O)N[C@H]1CC[C@H](n2c(=O)n(C)c3cnc(Nc4ccc5cccc(Cl)c5n4)cc32)C1 [Example 40]",
    "IC50": "0.01 to 0.1 µM"
  },
  {
    "molecule": "[2H]C([2H])([2H])n1c(=O)n([C@@H]2CC[C@](C)(NC(=O)OC)C2)c2cc(Nc3cc(C(C)(C)O)c4cccc(C(F)(F)F)c4n3)ncc21 [Example 13]",
    "IC50": "≤ 0.01 µM"
  },
  {
    "molecule": "[2H]C([2H])([2H])n1c(=O)n([C@@H]2CC[C@@H](NC(=O)OC)C2)c2cc(Nc3cc(NS(C)(=O)=O)c4cccc(C(F)(F)F)c4n3)ncc21 [Example 23]",
    "IC50": "0.01 to 0.1 µM"
  },
  {
    "molecule": "[2H]C([2H])([2H])n1c(=O)n([C@@H]2CC[C@@H](NC(=O)OC)C2)c2cc(Nc3ccc4c(C(C)(C)O)ccc(C(F)(F)F)c4n3)ncc21 [Example 47]",
    "IC50": "≤ 0.01 µM"
  }
]

The molecule listed as [2H]C([2H])([2H])n1c(=O)n([C@@H]2CC[C@@H](NC(=O)OC)C2)c2cc(Nc3cc(C(C)(C)O)c4nccc(C)c4n3)ncc21 [Example 29] shows IC50 equal to ≤ 0.01 µM

The molecule listed as COC(=O)N[C@@H]1CC[C@@H](n2c(=O)n(C)c3cnc(Nc4ccc5cc(C#N)ccc5n4)cc32)C1 [Example 45] shows IC50 equal to 0.1 to 0.5 µM

The molecule listed as [2H]C([2H])([2H])n1c(=O)n([C@@H]2CC[C@@H](NC(=O)OC)C2)c2cc(Nc3cc(C(C)O)c4cccc(C(F)(F)F)c4n3)ncc21 (stereo partly shown) [Example 2] shows IC50 equal to ≤ 0.01 µM

The molecule listed as COC(=O)N[C@@H]1CC[C@@H](n2c(=O)n(C)c3cnc(Nc4cc(Cl)c5cccc(C(F)(F)F)c5n4)cc32)C1 [Example 21] shows IC50 equal to ≤ 0.01 µM

The molecule listed as COC(=O)N[C@@H]1CC[C@@H](n2c(=O)n(C)c3cnc(Nc4ccc5cccc(C(F)F)c5n4)cc32)C1 [Example 38] shows IC50 equal to ≤ 0.01 µM

The molecule listed as COC(=O)N[C@@H]1CC[C@@H](n2c(=O)n(C)c3cnc(Nc4ccc5cccc(C#N)c5n4)cc32)C1 [Example 43] shows IC50 equal to ≤ 0.01 µM

The molecule listed as [2H]C([2H])([2H])n1c(=O)n(C23CC(NC(=O)OC)(C2)C3)c2cc(Nc3ccc4cccc(C(F)(F)F)c4n3)ncc21 [Example 33] shows IC50 equal to 0.01 to 0.1 µM

The molecule listed as COC(=O)N[C@@H]1CC[C@@H](n2c(=O)n(C)c3cnc(Nc4ccc5ccc(C#N)cc5n4)cc32)C1 [Example 44] shows IC50 equal to 0.1 to 0.5 µM

The molecule listed as [2H]C([2H])([2H])n1c(=O)n([C@@H]2CC[C@@H](NC(=O)OC)C2)c2cc(Nc3cc(C(C)(C)O)c4cccc(C(C)(C)C#N)c4n3)ncc21 [Example 34] shows IC50 equal to 0.01 to 0.1 µM

Provenance of the data: patent US20250304582A1
